Entry source: paper PMC6009867

Test system: HSC-4 (human oral squamous cell carcinoma, tongue)
Experiment: Cytotoxicity assay (MTT), HSC-4 cells
Type: cell-based
Settings: average CC50 of nonmalignant cells / CC50 toward HSC-4
property: SI HSC-4

{"compound": "NS(=O)(=O)c1ccc(N2N=C(c3ccc(F)cc3)CC2c2ccc(O)cc2)cc1 (stereo not shown) [Compound 11]", "SI HSC-4": 1.5}

Lab note: need SI HSC-4 for NS(=O)(=O)c1ccc(N2N=C(c3ccc(Cl)cc3)CC2c2ccc(O)cc2)cc1 (stereo not shown) [Compound 12] on HSC-4 (human oral squamous cell carcinoma, tongue), anyone have it?
1.4

Lab note: need SI HSC-4 for NS(=O)(=O)c1ccc(N2N=C(c3ccc(Br)cc3)CC2c2ccc(O)cc2)cc1 (stereo not shown) [Compound 13] on HSC-4 (human oral squamous cell carcinoma, tongue), anyone have it?
1.4

Lab note: need SI HSC-4 for Cc1ccc(C2=NN(c3ccc(S(N)(=O)=O)cc3)C(c3ccc(O)cc3)C2)cc1 (stereo not shown) [Compound 9] on HSC-4 (human oral squamous cell carcinoma, tongue), anyone have it?
1.4

Lab note: need SI HSC-4 for NS(=O)(=O)c1ccc(N2N=C(c3cccs3)CC2c2ccc(O)cc2)cc1 (stereo not shown) [Compound 14] on HSC-4 (human oral squamous cell carcinoma, tongue), anyone have it?
1.5

Lab note: need SI HSC-4 for NS(=O)(=O)c1ccc(N2N=C(c3ccccc3)CC2c2ccc(O)cc2)cc1 (stereo not shown) [Compound 8] on HSC-4 (human oral squamous cell carcinoma, tongue), anyone have it?
1.5

Lab note: need SI HSC-4 for COc1ccc(C2=NN(c3ccc(S(N)(=O)=O)cc3)C(c3ccc(O)cc3)C2)cc1 (stereo not shown) [Compound 10] on HSC-4 (human oral squamous cell carcinoma, tongue), anyone have it?
1.2

###

Experiment: Cytotoxicity assay (MTT), HPLF cells
Type: cell-based
Settings: human, periodontal ligament fibroblasts (HPLF), normal oral cells
Listed here are compounds together with their documented CC50 at 48 h.
Write the number in µM without appending the unit.

{"compound": "NS(=O)(=O)c1ccc(N2N=C(c3ccc(Br)cc3)CC2c2ccc(O)cc2)cc1 (centres unmarked)", "property": "CC50 at 48 h", "observed value": 29.7}

Consider the compound shown here: COc1ccc(C2=NN(c3ccc(S(N)(=O)=O)cc3)C(c3ccc(O)cc3)C2)cc1 (centres unmarked) What is its recorded CC50 at 48 h?
44

Consider the compound shown here: Cc1ccc(C2=NN(c3ccc(S(N)(=O)=O)cc3)C(c3ccc(O)cc3)C2)cc1 (centres unmarked) What is its recorded CC50 at 48 h?
39.3

Consider the compound shown here: NS(=O)(=O)c1ccc(N2N=C(c3ccccc3)CC2c2ccc(O)cc2)cc1 (centres unmarked) What is its recorded CC50 at 48 h?
54.3

Consider the compound shown here: NS(=O)(=O)c1ccc(N2N=C(c3ccc(Cl)cc3)CC2c2ccc(O)cc2)cc1 (centres unmarked) What is its recorded CC50 at 48 h?
38.3

Consider the compound shown here: NS(=O)(=O)c1ccc(N2N=C(c3cccs3)CC2c2ccc(O)cc2)cc1 (centres unmarked) What is its recorded CC50 at 48 h?
73

Consider the compound shown here: NS(=O)(=O)c1ccc(N2N=C(c3ccc(F)cc3)CC2c2ccc(O)cc2)cc1 (centres unmarked) What is its recorded CC50 at 48 h?
43

Consider the compound shown here: O=c1[nH]cc(F)c(=O)[nH]1 [Compound 5-FU, 5-Fluorouracil, reference compound] What is its recorded CC50 at 48 h?
208

###

Biological target: hCA II (Homo sapiens)
Assay: Carbonic anhydrase inhibition assay (esterase activity, 348 nm), hCA II
Assay type: biochemical
Conditions: in terms of IC50 values
property: times more potent than AZA toward hCA II
Give the value as a plain number.

Would you please look over these solved cases?
{"compound": "NS(=O)(=O)c1ccc(N2N=C(c3cccs3)CC2c2ccc(O)cc2)cc1 (stereo not drawn)", "observed value": 36.6}
{"compound": "NS(=O)(=O)c1ccc(N2N=C(c3ccc(F)cc3)CC2c2ccc(O)cc2)cc1 (stereo not drawn)", "observed value": 34.9}

Then this compound:
Consider the compound shown here: COc1ccc(C2=NN(c3ccc(S(N)(=O)=O)cc3)C(c3ccc(O)cc3)C2)cc1 (stereo not drawn) What is its recorded times more potent than AZA toward hCA II?
37.1

###

Listed here are molecules together with their documented PSE (D/B^2) × 100.
Test system: Human oral squamous cell carcinoma cells
Assay: Cytotoxicity assay (MTT), mean over four OSCC cell lines
Type: cell-based
Conditions: potency selectivity expression, expressed as a percentage
Give the value as a plain number.

Consider the molecule shown here: NS(=O)(=O)c1ccc(N2N=C(c3ccccc3)CC2c2ccc(O)cc2)cc1 (stereo not shown) What is its recorded PSE (D/B^2) × 100?
2.3

Consider the molecule shown here: NS(=O)(=O)c1ccc(N2N=C(c3cccs3)CC2c2ccc(O)cc2)cc1 (stereo not shown) What is its recorded PSE (D/B^2) × 100?
2.8

Consider the molecule shown here: NS(=O)(=O)c1ccc(N2N=C(c3ccc(F)cc3)CC2c2ccc(O)cc2)cc1 (stereo not shown) What is its recorded PSE (D/B^2) × 100?
3.5

Consider the molecule shown here: Cc1ccc(C2=NN(c3ccc(S(N)(=O)=O)cc3)C(c3ccc(O)cc3)C2)cc1 (stereo not shown) What is its recorded PSE (D/B^2) × 100?
4.2

###

Target: hCA II (Homo sapiens)
property: pIC50
pIC50 here: minus log base 10 of the concentration, concentration in moles per litre.

{"compound": "Cc1ccc(C2=NN(c3ccc(S(N)(=O)=O)cc3)C(c3ccc(O)cc3)C2)cc1 (stereo not drawn)", "pIC50": 8.25}
{"compound": "NS(=O)(=O)c1ccc(N2N=C(c3ccc(Br)cc3)CC2c2ccc(O)cc2)cc1 (stereo not drawn)", "pIC50": 8.33}

Then this compound:
Consider the compound shown here: NS(=O)(=O)c1ccc(N2N=C(c3cccs3)CC2c2ccc(O)cc2)cc1 (stereo not drawn) What is its recorded pIC50?
8.26

###

Assay system hCA I (Homo sapiens, UniProt P00915); read-out recorded as pIC50.
pIC50 here: minus log base 10 of the concentration, concentration in moles per litre.

Would you please look over these solved cases?
{"compound": "NS(=O)(=O)c1ccc(N2N=C(c3cccs3)CC2c2ccc(O)cc2)cc1 (stereo not shown)", "property": "pIC50", "observed value": 8.29}
{"compound": "NS(=O)(=O)c1ccc(N2N=C(c3ccc(Br)cc3)CC2c2ccc(O)cc2)cc1 (stereo not shown)", "property": "pIC50", "observed value": 8.37}
{"compound": "NS(=O)(=O)c1ccc(N2N=C(c3ccccc3)CC2c2ccc(O)cc2)cc1 (stereo not shown)", "property": "pIC50", "observed value": 8.32}

Then this compound:
Lab note: need pIC50 for NS(=O)(=O)c1ccc(N2N=C(c3ccc(F)cc3)CC2c2ccc(O)cc2)cc1 (stereo not shown) on hCA I (Homo sapiens, UniProt P00915), anyone have it?
8.25

###

Listed here are compounds together with their documented times of potency versus 5-FU toward Ca9-22.
Tested on: Ca9-22 (human oral squamous cell carcinoma, gingiva)
Assay: Cytotoxicity assay (MTT), Ca9-22 cells
Format: cell-based
Conditions: CC50 ratio to reference 5-FU, Ca9-22
Give the value as a plain number.

Would you please look over these solved cases?
{"compound": "NS(=O)(=O)c1ccc(N2N=C(c3cccs3)CC2c2ccc(O)cc2)cc1 (stereo not shown)", "observed value": 2.2}
{"compound": "NS(=O)(=O)c1ccc(N2N=C(c3ccc(F)cc3)CC2c2ccc(O)cc2)cc1 (stereo not shown)", "observed value": 2.8}
{"compound": "NS(=O)(=O)c1ccc(N2N=C(c3ccc(Cl)cc3)CC2c2ccc(O)cc2)cc1 (stereo not shown)", "observed value": 4.5}

Consider the compound shown here: Cc1ccc(C2=NN(c3ccc(S(N)(=O)=O)cc3)C(c3ccc(O)cc3)C2)cc1 (stereo not shown) What is its recorded times of potency versus 5-FU toward Ca9-22?
3.9

Consider the compound shown here: NS(=O)(=O)c1ccc(N2N=C(c3ccc(Br)cc3)CC2c2ccc(O)cc2)cc1 (stereo not shown) What is its recorded times of potency versus 5-FU toward Ca9-22?
4.8

Consider the compound shown here: COc1ccc(C2=NN(c3ccc(S(N)(=O)=O)cc3)C(c3ccc(O)cc3)C2)cc1 (stereo not shown) What is its recorded times of potency versus 5-FU toward Ca9-22?
2.7

Consider the compound shown here: NS(=O)(=O)c1ccc(N2N=C(c3ccccc3)CC2c2ccc(O)cc2)cc1 (stereo not shown) What is its recorded times of potency versus 5-FU toward Ca9-22?
2.4

###

Biological target: hCA I (Homo sapiens)
Sequence (P00915 whole entry): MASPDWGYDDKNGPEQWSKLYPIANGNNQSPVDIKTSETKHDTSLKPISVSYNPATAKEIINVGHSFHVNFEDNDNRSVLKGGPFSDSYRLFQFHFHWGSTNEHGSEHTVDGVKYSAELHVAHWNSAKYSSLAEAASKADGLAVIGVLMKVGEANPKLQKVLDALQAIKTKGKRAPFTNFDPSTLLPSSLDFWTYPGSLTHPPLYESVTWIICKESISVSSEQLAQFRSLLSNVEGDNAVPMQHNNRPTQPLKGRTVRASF
Test: Carbonic anhydrase inhibition assay (esterase activity, 348 nm), hCA I
Assay type: biochemical
Details: Lineweaver-Burk, three concentrations
Listed here are compounds together with their documented Ki.
Write the number in nM without appending the unit.

{"compound": "COc1ccc(C2=NN(c3ccc(S(N)(=O)=O)cc3)C(c3ccc(O)cc3)C2)cc1 (stereo not shown)", "Ki (nM)": 3.99}
{"compound": "NS(=O)(=O)c1ccc(N2N=C(c3ccc(Br)cc3)CC2c2ccc(O)cc2)cc1 (stereo not shown)", "Ki (nM)": 3.73}
{"compound": "NS(=O)(=O)c1ccc(N2N=C(c3cccs3)CC2c2ccc(O)cc2)cc1 (stereo not shown)", "Ki (nM)": 4.17}

Then this compound:
Lab note: need Ki for NS(=O)(=O)c1ccc(N2N=C(c3ccc(F)cc3)CC2c2ccc(O)cc2)cc1 (stereo not shown) on hCA I (Homo sapiens), anyone have it?
5.1
